assay_name: chemical genetic growth profiling, strain panel (AID 1159580);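 further: tested at 20 µM; growth read once vehicle control cultures reached saturation at 30 °C; 1 = growth at the plate median or of vehicle wells; lower values mean less growth of the strain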
reported_conditions: S. cerevisiae deletion strains, growth OD, locus YOR080W, strain dia2, stronger effect = lower value
The whole screen tested about 5,500 compounds, of which about 2,000 (36%) were called active. Inconclusive results (about 18%) are left out. This is one part of the list.
experimental_endpoint: normalized growth

compound: O=C(Oc1cc(OC(=O)c2ccccc2)c2c(c1)O[C@H](c1ccc(OC(=O)c3ccccc3)c(OC(=O)c3ccccc3)c1)[C@@H](OC(=O)c1ccccc1)C2)c1ccccc1
value_observed: 0.989 (inactive)
//
compound: COC(=O)C1=COC(OC2OC(CO)C(O)C(O)C2O)C2C(C)CC(=O)C12 (configuration not stated)
value_observed: 1.02 (inactive)
//
compound: Cc1ccc(C(=O)Nc2ccc(S(=O)(=O)O)c3cc(S(=O)(=O)O)cc(S(=O)(=O)O)c23)cc1NC(=O)c1cccc(NC(=O)Nc2cccc(C(=O)Nc3cc(C(=O)Nc4ccc(S(=O)(=O)O)c5cc(S(=O)(=O)O)cc(S(=O)(=O)O)c45)ccc3C)c2)c1
value_observed: 1.01 (inactive)
//
compound: C=C1C2CC[C@@]3(C)[C@H](c4ccoc4)OC(=O)C[C@]13O[C@H]1CC(=O)C(C)(C)[C@H](C(OC(C)=O)C(=O)OC)[C@@]21C (some centres not stated)
value_observed: 1.01 (inactive)
//
compound: CC1(O)CC2C(CC1O)C2(C)C (configuration not stated)
value_observed: 1 (inactive)
//
compound: CNCCC(Oc1ccc(C(F)(F)F)cc1)c1ccccc1 (configuration not stated)
value_observed: 0.997 (inactive)
//
compound: O=C1CCC(N2C(=O)c3ccccc3C2=O)C(=O)N1 (configuration not stated)
value_observed: 1.02 (inactive)
//
compound: CC[C@@H]1C=C/C=C/C[C@H](C)[C@@H](O)[C@](C)(O)C(=O)[C@H](C)[C@@H](O)[C@H](C)C(=O)[C@H](C)[C@@H](O)[C@H](C)/C=C/C(=O)O[C@H]2[C@@H](C)[C@@H](CC1)O[C@@]1(CC[C@@H](C)[C@@H](C[C@H](C)O)O1)[C@@H]2C
value_observed: 1.01 (inactive)
//
compound: COc1ccc2c(c1)OC/C(=C/c1ccc(OC)c(OC)c1)C2=O
value_observed: 0.986 (inactive)
//
compound: O=C1C(Cl)=C(Cl)C(=O)C(Cl)=C1Cl
value_observed: 0.98 (inactive)
//
compound: CCCCC/C=C/CCC(=O)N[C@H]1[C@H](Oc2c3cc4cc2Oc2ccc(cc2Cl)[C@@H](O[C@@H]2O[C@H](CO)[C@@H](O)[C@H](O)[C@H]2NC(C)=O)[C@@H]2NC(=O)[C@H](NC(=O)[C@@H]4NC(=O)[C@H]4NC(=O)C(Cc5ccc(c(Cl)c5)O3)NC(=O)[C@H](N)c3ccc(O)c(c3)Oc3cc(O)cc4c3)c3ccc(O)c(c3)-c3c(OC4O[C@H](CO)[C@@H](O)[C@H](O)[C@@H]4O)cc(O)cc3[C@@H](C(=O)O)NC2=O)O[C@H](CO)[C@@H](O)[C@@H]1O (some centres not stated)
value_observed: 0.98 (inactive)
//
compound: CC(=O)Oc1cc(OC(C)=O)c2c(c1)O[C@H](c1ccc(OC(C)=O)c(OC(C)=O)c1)[C@@H](OC(C)=O)C2
value_observed: 0.998 (inactive)
//
compound: CC(=O)Oc1cc(OC(C)=O)c2c(c1)O[C@H](c1ccc(OC(C)=O)c(OC(C)=O)c1)[C@H](OC(C)=O)C2
value_observed: 1 (inactive)
//
compound: CCCCNC(=O)NS(=O)(=O)c1ccc(C)cc1
value_observed: 1.02 (inactive)
//
compound: C=C[C@@](C)(O)CCC1C(=C)C[C@H](O)C2C(C)(C)CCCC12C (some centres not stated)
value_observed: 0.998 (inactive)
//
compound: Cc1ncc(CNC(=O)N(CCCl)N=O)c(N)n1
value_observed: 1.01 (inactive)
//
compound: COc1cc2nc(N(C)CCCNC(=O)C3CCCO3)nc(N)c2cc1OC (configuration not stated)
value_observed: 0.983 (inactive)
